- assayedTarget: HCK (Homo sapiens, UniProt P08631)
- Construct: the DNA-tagged SH2 domain concentrations used in this study were <0.1 nM; made in house; host or cells: HEK293 (transient transfection, unpurified extract)
- Sequence (P08631 144-241 limits assumed): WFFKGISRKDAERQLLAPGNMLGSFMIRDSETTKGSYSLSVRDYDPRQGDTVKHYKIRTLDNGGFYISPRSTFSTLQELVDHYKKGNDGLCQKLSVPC
- protocolSummary: biochemical
- Format: binding
- particulars: primary screen, 10 μM; read-out: percent of DMSO vehicle control

| molecule | assayedTarget | unitSymbol | remaining activity at 10 µM |
| --- | --- | --- | --- |
| CC(C)(C)[C@H](NC(=O)/C=C/c1ccc(OP(=O)(O)O)cc1)C(=O)N1CCC[C@H]1C(=O)N(c1ccccc1)c1ccc(I)cc1 [STAT6-IN-3] | HCK (Homo sapiens, UniProt P08631) | % | 77.4 |
| O=C(CCl)Nc1cccc(CNC(=O)[C@H](Cc2ccc(OP(=O)(O)O)cc2)NC(=O)Cc2ccc(F)cc2)c1 [MN551] | HCK (Homo sapiens, UniProt P08631) | % | 92.7 |
| O=C(COc1ccc2cc(C(=O)Nc3ccccc3)ccc2c1)NCc1ccc(OP(=O)(O)O)c(OP(=O)(O)O)c1 [Stafib-1] | HCK (Homo sapiens, UniProt P08631) | % | 77 |
| C/C(=C\C(=O)N[C@H](C(=O)N1CCC[C@H]1C(=O)N(c1ccccc1)c1ccc(I)cc1)C(C)(C)C)c1ccc(OP(=O)(O)O)cc1 [STAT6-IN-1] | HCK (Homo sapiens, UniProt P08631) | % | 48.8 |
